target: α2 subtype containing GABA-A receptors (Homo sapiens, UniProt P18507+P47869); construct: expressed in transfected cells; host or cells: Xenopus laevis oocytes, cRNA injected; assay: Two-electrode voltage clamp electrophysiology in Xenopus oocytes, potentiation of GABA EC20 response, α2; type: cell-based; settings: 100 nM compound, read-out: Percentage of potentiation alpha2
Sequence (P47869 29-451): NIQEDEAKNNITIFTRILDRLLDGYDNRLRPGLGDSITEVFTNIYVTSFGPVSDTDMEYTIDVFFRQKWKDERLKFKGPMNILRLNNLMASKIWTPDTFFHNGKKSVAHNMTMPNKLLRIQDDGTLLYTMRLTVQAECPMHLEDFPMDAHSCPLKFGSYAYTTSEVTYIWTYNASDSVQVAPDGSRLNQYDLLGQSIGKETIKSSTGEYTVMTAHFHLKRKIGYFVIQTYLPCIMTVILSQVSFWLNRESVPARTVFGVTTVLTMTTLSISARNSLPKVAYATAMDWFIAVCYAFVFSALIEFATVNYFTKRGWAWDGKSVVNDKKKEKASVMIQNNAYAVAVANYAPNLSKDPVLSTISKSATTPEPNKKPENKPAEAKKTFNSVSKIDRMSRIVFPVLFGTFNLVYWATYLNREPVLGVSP
Sequence (P28472 26-473 partner): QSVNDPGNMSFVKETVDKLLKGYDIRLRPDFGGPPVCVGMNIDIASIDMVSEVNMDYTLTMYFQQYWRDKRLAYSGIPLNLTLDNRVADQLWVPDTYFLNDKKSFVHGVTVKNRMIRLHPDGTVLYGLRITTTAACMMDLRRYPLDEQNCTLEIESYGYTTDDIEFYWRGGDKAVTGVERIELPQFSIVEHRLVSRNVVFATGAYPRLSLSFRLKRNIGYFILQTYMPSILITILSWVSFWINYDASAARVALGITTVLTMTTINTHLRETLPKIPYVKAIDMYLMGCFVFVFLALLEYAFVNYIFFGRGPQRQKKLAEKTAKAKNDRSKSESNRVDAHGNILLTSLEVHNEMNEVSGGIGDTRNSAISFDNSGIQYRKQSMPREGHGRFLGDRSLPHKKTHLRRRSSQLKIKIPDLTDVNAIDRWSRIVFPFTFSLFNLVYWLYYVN
Sequence (P18507 40-475): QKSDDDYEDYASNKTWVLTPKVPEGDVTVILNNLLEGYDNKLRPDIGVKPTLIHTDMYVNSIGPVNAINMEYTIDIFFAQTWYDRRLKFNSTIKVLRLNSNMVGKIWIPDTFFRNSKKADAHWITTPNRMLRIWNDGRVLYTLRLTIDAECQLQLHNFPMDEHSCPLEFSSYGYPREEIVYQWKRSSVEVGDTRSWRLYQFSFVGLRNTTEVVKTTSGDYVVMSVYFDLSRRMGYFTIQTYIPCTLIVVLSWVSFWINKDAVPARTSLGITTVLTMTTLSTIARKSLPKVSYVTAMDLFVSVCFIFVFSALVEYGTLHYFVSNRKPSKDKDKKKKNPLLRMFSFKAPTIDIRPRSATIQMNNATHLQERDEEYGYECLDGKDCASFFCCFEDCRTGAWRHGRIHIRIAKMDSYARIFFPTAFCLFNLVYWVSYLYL
Each entry below carries its reported activation at 0.1 µM.

// worked examples, activation at 0.1 µM included
>  <COMPOUND>
Clc1ccc(-c2nc3ccccn3c2Cn2nccn2)cc1

>  <activation at 0.1 µM>
10 to 50%

$$$$
>  <COMPOUND>
Nc1ccn(Cc2c(-c3ccc(Cl)cc3)nc3ccccn23)c(=O)n1

>  <activation at 0.1 µM>
10 to 50%

$$$$
>  <COMPOUND>
CC(C)OC(=O)c1ncnn1Cc1c(-c2ccc(Cl)cc2)nc2ccc(Cl)cn12

>  <activation at 0.1 µM>
10 to 50%

$$$$
>  <COMPOUND>
Cc1ccc2nc(-c3ccc(F)cc3)c(CNc3nc(C)cc(Cl)n3)n2c1

>  <activation at 0.1 µM>
10 to 50%

$$$$
>  <COMPOUND>
OC1CCN(c2cncc(Cc3c(-c4ccc(Cl)cc4)nc4ccccn34)n2)C1 (stereo not drawn)

>  <activation at 0.1 µM>
10 to 50%

$$$$

Now for a further compound.
GET activation at 0.1 µM where system = α2 subtype containing GABA-A receptors (Homo sapiens, UniProt P18507+P47869) and item = Cn1ccnc1Cc1c(-c2ccc(Cl)cc2)nc2ccccn12 ≥ 50%

###

target: α2 subtype containing GABA-A receptors (Homo sapiens, UniProt P18507+P47869); construct: expressed in transfected cells; host or cells: Xenopus laevis oocytes, cRNA injected; assay: Two-electrode voltage clamp electrophysiology in Xenopus oocytes, potentiation of GABA EC20 response, α2; type: cell-based; details: 100 nM compound, read-out: Percentage of potentiation alpha2
Each entry below carries its reported activation at 0.1 µM.

// worked examples, activation at 0.1 µM included
>  <COMPOUND>
Clc1ccc(-c2nc3ccccn3c2Cn2ccnn2)cc1 [Compound 40]

>  <TEST RESULT>
10 to 50%

$$$$
>  <COMPOUND>
Fc1ccc(-c2nc3ccc(Cl)cn3c2CNc2nccc(CN3CCCC3)n2)cc1 [Compound 198]

>  <TEST RESULT>
≥ 50%

$$$$
>  <COMPOUND>
O=C1CCN1Cc1c(-c2ccccc2)nc2ccc(Cl)cn12 [Compound 115]

>  <TEST RESULT>
10 to 50%

$$$$
>  <COMPOUND>
CN1CCN(C2=CC(=O)N(Cc3c(-c4ccc(Cl)cc4)nc4ccccn34)C2)CC1 [Compound 238]

>  <TEST RESULT>
10 to 50%

$$$$
>  <COMPOUND>
Cc1nnc(Cc2c(-c3ccc(Cl)cc3)nc3ccccn23)o1 [Compound 204]

>  <TEST RESULT>
10 to 50%

$$$$
>  <COMPOUND>
Cc1ccnc(NCc2c(-c3ccccc3)nc3ccc(Cl)cn23)n1 [Compound 158]

>  <TEST RESULT>
10 to 50%

$$$$
>  <COMPOUND>
Cc1cccn(Cc2c(-c3ccc(Cl)cc3)nc3ccc(F)cn23)c1=O [Compound 121]

>  <TEST RESULT>
≥ 50%

$$$$
>  <COMPOUND>
Cc1ccc(-c2nc3ccc(C)cn3c2CNc2ncccn2)cc1 [Compound 139]

>  <TEST RESULT>
10 to 50%

$$$$
>  <COMPOUND>
CNNc1cncc(Cc2c(-c3ccc(Cl)cc3)nc3ccccn23)n1 [Compound 193]

>  <TEST RESULT>
10 to 50%

$$$$
>  <COMPOUND>
O=c1nc(N2CCCC2)ccn1Cc1c(-c2ccc(Cl)cc2)nc2ccccn12 [Compound 136]

>  <TEST RESULT>
≥ 50%

$$$$

Using the record for O=c1c2ccccc2[nH]n1Cc1c(-c2ccc(Cl)cc2)nc2ccccn12 [Compound 118] , state its measured activation at 0.1 µM. ≥ 50%

Using the record for CN1CC[C@H](Oc2ccnc(NCc3c(-c4ccc(F)cc4)nc4ccc(Cl)cn34)n2)C1 [Compound 184] , state its measured activation at 0.1 µM. 10 to 50%

Using the record for CN(C)c1ccn(Cc2c(-c3ccc(Cl)cc3)nc3ccccn23)c(=O)n1 [Compound 135] , state its measured activation at 0.1 µM. ≥ 50%

Using the record for Clc1ccc(-c2nc3ccccn3c2Cc2ncn[nH]2)cc1 [Compound 211] , state its measured activation at 0.1 µM. ≥ 50%

Using the record for CNC(=O)c1nc(Cc2c(-c3ccc(F)cc3)nc3ccc(F)cn23)no1 [Compound 221] , state its measured activation at 0.1 µM. 10 to 50%

Using the record for CCOc1ccn(Cc2c(-c3ccc(Cl)cc3)nc3ccccn23)c(=O)n1 [Compound 137] , state its measured activation at 0.1 µM. 10 to 50%

Using the record for COC(=O)c1ncnn1Cc1c(-c2ccccc2)nc2ccc(Cl)cn12 [Compound 44] , state its measured activation at 0.1 µM. -10 to 10%

Using the record for O=C(NO)c1nc(Cc2c(-c3ccc(F)cc3)nc3ccc(F)cn23)no1 [Compound 223] , state its measured activation at 0.1 µM. 10 to 50%

###

target: α2 subtype containing GABA-A receptors (Homo sapiens, UniProt P18507+P47869); construct: expressed in transfected cells; host or cells: Xenopus laevis oocytes, cRNA injected; test: Two-electrode voltage clamp electrophysiology in Xenopus oocytes, potentiation of GABA EC20 response, α2; assay type: cell-based; details: 100 nM compound, read-out: Percentage of potentiation alpha2
REPORTED METRIC: activation at 0.1 µM

// worked examples, activation at 0.1 µM included
>  <MOLECULE>
Cc1nnc(Cc2c(-c3ccccc3)nc3ccc(Cl)cn23)o1 [Compound 205]

>  <TEST RESULT>
-10 to 10%

$$$$
>  <MOLECULE>
Cc1ccc(-c2nc3ccc(C)cn3c2CNc2nccnn2)cc1 [Compound 145]

>  <TEST RESULT>
10 to 50%

$$$$
>  <MOLECULE>
NC(=O)c1ncn(Cc2c(-c3ccc(Cl)cc3)nc3ccccn23)n1 [Compound 72]

>  <TEST RESULT>
≥ 50%

$$$$

Using the record for COC(=O)c1ncn(Cc2c(-c3ccc(Cl)cc3)nc3ccccn23)n1 [Compound 25] , state its measured activation at 0.1 µM. ≥ 50%

Using the record for CN(C)CCNc1cc(Cc2c(-c3ccc(Cl)cc3)nc3ccccn23)ncn1 [Compound 243] , state its measured activation at 0.1 µM. 10 to 50%

###

target: α2 subtype containing GABA-A receptors (Homo sapiens, UniProt P18507+P47869); construct: expressed in transfected cells; host or cells: Xenopus laevis oocytes, cRNA injected; assay: Two-electrode voltage clamp electrophysiology in Xenopus oocytes, potentiation of GABA EC20 response, α2; format: cell-based; details: 100 nM compound, read-out: Percentage of potentiation alpha2
REPORTED METRIC: activation at 0.1 µM

Using the record for Cc1nn(C)nc1Cc1c(-c2ccc(Cl)cc2)nc2ccc(Cl)cn12 , state its measured activation at 0.1 µM. 10 to 50%

Using the record for Cn1ncnc1Cc1c(-c2ccc(Cl)cc2)nc2ccccn12 , state its measured activation at 0.1 µM. 10 to 50%

Using the record for OC1CCN(c2ccnc(NCc3c(-c4ccc(F)cc4)nc4ccc(Cl)cn34)n2)C1 (centres unmarked) , state its measured activation at 0.1 µM. ≥ 50%

Using the record for Cc1ccn(Cc2c(-c3ccc(Cl)cc3)nc3ccccn23)c(=O)n1 , state its measured activation at 0.1 µM. 10 to 50%

Using the record for OC[C@H]1CCCN1c1ccnc(NCc2c(-c3ccccc3)nc3ccc(Cl)cn23)n1 , state its measured activation at 0.1 µM. ≥ 50%

###

test system: Swiss Webster (CFW) mice; assay: Four Plate Test (FPT); format: in vivo; details: mouse, 30 mg/kg PO, 30 min before test, 2 min session
REPORTED METRIC: Number of Punished Crossings Mean ± S.E.M.
Just the number, please, no unit after it.

>  <MOLECULE>
NC(=O)c1nccn1Cc1c(-c2ccc(Cl)cc2)nc2ccccn12 [Compound 76]

>  <TEST RESULT>
6.3

$$$$
>  <MOLECULE>
NC(=O)c1ncn(Cc2c(-c3ccc(Cl)cc3)nc3ccccn23)n1 [Compound 72]

>  <TEST RESULT>
4.8

$$$$
>  <MOLECULE>
Cc1ccn(Cc2c(-c3ccc(Cl)cc3)nc3ccccn23)c(=O)n1 [Compound 105]

>  <TEST RESULT>
5.6

$$$$
>  <MOLECULE>
Clc1ccc(-c2nc3ccccn3c2Cc2ncn[nH]2)cc1 [Compound 211]

>  <TEST RESULT>
8.9

$$$$
>  <MOLECULE>
CNC(=O)c1nccn1Cc1c(-c2ccc(Cl)cc2)nc2ccccn12 [Compound 77]

>  <TEST RESULT>
5.0

$$$$
>  <MOLECULE>
Cn1ncnc1Cc1c(-c2ccc(F)cc2)nc2ccc(F)cn12 [Compound 200]

>  <TEST RESULT>
7.5

$$$$
>  <MOLECULE>
Fc1ccc(-c2nc3ccc(F)cn3c2Cn2nccn2)cc1 [Compound 60]

>  <TEST RESULT>
6.0

$$$$

Now for a further molecule.
GET Number of Punished Crossings Mean ± S.E.M. where system = Swiss Webster (CFW) mice and item = Clc1ccc(-c2nc3cccnn3c2Cn2cncn2)cc1 [Compound 32] 5.7

Value source: patent US8497278B2
